pKi values by entry
- ASSAYED_TARGET: human M4 receptor (Homo sapiens (Human))
- Sequence (P08173 whole entry): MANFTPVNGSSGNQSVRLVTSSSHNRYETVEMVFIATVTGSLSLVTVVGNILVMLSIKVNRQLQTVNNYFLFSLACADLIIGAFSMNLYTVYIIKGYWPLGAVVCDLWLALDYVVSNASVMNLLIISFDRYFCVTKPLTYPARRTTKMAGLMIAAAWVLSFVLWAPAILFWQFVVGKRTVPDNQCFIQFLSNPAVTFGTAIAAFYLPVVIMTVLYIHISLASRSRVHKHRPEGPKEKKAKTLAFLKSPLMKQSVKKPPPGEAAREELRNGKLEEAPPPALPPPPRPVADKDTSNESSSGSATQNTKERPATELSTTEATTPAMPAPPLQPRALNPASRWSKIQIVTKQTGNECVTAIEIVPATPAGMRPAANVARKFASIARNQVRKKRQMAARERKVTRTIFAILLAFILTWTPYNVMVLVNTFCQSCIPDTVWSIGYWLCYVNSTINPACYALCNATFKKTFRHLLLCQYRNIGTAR
- PROTOCOL_SUMMARY: Radioligand (tritiated N-methylscopolamine) binding assay, M4
- MEASUREMENT_PARAMETERS: Ki against the M4 receptor; membranes from CHO cells expressing human M4; tritiated N-methylscopolamine 1.5 nM; read-out: Ki
pKi: −log10 of the molar value.

Example compounds with recorded pKi:
[
  {
    "COMPOUND": "C[C@@H]1CN(c2cc(F)c(F)c(F)c2)CCN1C(=O)NCCC1CCN(Cc2cccc(OC(F)(F)F)c2)CC1 [6-20]",
    "ASSAYED_TARGET": "human M4 receptor (Homo sapiens (Human))",
    "pKi": "6.00 to 7.00"
  },
  {
    "COMPOUND": "O=C(NCCC1CCN(Cc2ccccc2)CC1)c1ccc(-c2ccc(Cl)cc2)cc1F [9-12]",
    "ASSAYED_TARGET": "human M4 receptor (Homo sapiens (Human))",
    "pKi": "7.00 to 8.00"
  },
  {
    "COMPOUND": "O=C(CC1CCN(Cc2ccccc2)CC1)NCC1CCN(c2cccc(OC(F)(F)F)c2)CC1 [10-26]",
    "ASSAYED_TARGET": "human M4 receptor (Homo sapiens (Human))",
    "pKi": "6.00 to 7.00"
  },
  {
    "COMPOUND": "C[C@@H]1CN(c2cc(F)c(C#N)cc2F)CCN1C(=O)NCCC1CCN(Cc2ccccc2)CC1 [22-10]",
    "ASSAYED_TARGET": "human M4 receptor (Homo sapiens (Human))",
    "pKi": "> 8.00"
  },
  {
    "COMPOUND": "O=C(NCCC1CCN(CC2CCCCC2)CC1)C1CCN(c2ccc(OC(F)(F)F)cc2)CC1 [11-21]",
    "ASSAYED_TARGET": "human M4 receptor (Homo sapiens (Human))",
    "pKi": "6.00 to 7.00"
  }
]

Given C[C@@H]1CN(c2ncc(C#N)cn2)C[C@H](C)N1C(=O)NCCC1CCN(Cc2ccc(N(C)C)cc2)CC1 [6-43] , state its recorded pKi.
7.00 to 8.00

Look up pKi: C[C@@H]1CN(c2cnc(C(F)(F)F)nc2)C[C@H](C)N1C(=O)NCCC1CCN(CCc2ccccc2)CC1 [6-56]
7.00 to 8.00

Requested field: pKi. Item: N#Cc1ccc(N2CCN(C(=O)NCCC3CCN(Cc4ccccc4)CC3)CC2)nc1 [8-45]
6.00 to 7.00

State the recorded pKi for this entry: C[C@@H]1CN(c2ccc(OC(F)(F)F)c(C#N)c2)CCN1C(=O)NCCC1(O)CCN(Cc2ccccc2)CC1 [3-5]
> 8.00

Which pKi reading was recorded for the compound C[C@@H]1CN(c2ccc(OC(F)(F)F)cn2)CCN1C(=O)NCCC1CCN(Cc2ccccc2)CC1 [3-13] ?
> 8.00

Return reported pKi; argument: Cc1c(C(=O)NCCC2CCN(Cc3ccccc3)CC2)cnc2cc(-c3ccc(F)cc3)nn12 [18-4]
> 8.00

Data request, read-out pKi, for O=C(NCCC1CCN(Cc2ccccc2)CC1)c1ccc(-c2ccc(OC(F)(F)F)cc2)cc1 [9-7]
> 8.00

pKi lookup needed for C[C@@H]1CN(c2ncc(C#N)cn2)C[C@H](C)N1C(=O)NCCC1CCN(CCc2ccccc2)CC1 [6-44] , thanks.
6.00 to 7.00

Fill blank: measured pKi of the compound O=C(NCCC1CCN(Cc2ccccc2)CC1)N1CCC(c2cccc(C(F)(F)F)c2)CC1 [8-3] is ____.
7.00 to 8.00

Which pKi is listed for C[C@@H]1CN(c2ccc(OC(F)(F)F)c(C#N)c2)CCN1C(=O)NCCC1CCN(Cc2ccccc2)CC1 [3-1] ?
> 8.00

For the compound O=C(NCCC1CCN(Cc2ccccc2)CC1)NC1CCN(c2ccc(F)cc2)CC1 [8-39] , what pKi is on record?
6.00 to 7.00
